- test-target: T1, human CD71 extracellular domain (human, UniProt P02786 89-760)
- T1 construct: also called hCD71; CD71-ECD
- T1 sequence (P02786 89-760): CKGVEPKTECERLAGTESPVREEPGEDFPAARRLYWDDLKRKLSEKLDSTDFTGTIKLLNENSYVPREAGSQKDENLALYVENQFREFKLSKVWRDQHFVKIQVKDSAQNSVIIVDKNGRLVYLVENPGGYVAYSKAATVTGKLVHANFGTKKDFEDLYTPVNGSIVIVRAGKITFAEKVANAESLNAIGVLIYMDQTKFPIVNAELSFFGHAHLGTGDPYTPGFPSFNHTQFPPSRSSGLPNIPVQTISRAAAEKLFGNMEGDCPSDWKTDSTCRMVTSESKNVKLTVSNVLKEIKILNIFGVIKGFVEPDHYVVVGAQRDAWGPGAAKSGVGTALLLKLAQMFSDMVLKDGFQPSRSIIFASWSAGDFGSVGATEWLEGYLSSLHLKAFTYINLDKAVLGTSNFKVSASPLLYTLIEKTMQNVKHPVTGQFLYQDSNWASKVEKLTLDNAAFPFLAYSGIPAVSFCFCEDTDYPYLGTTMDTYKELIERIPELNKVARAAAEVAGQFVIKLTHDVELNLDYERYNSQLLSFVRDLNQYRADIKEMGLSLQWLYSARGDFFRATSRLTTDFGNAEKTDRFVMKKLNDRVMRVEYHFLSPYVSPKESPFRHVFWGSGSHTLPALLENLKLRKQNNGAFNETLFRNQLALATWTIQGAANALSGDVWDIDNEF
- experimental-protocol: primary ELISA; further: test concentration or dose not given here
property-name: RLU (RLU)

[A] CD71-binding FN3 domain SEQ ID NO 409 (designed binder) MLPAPKNLVVSRVTEDSARLSWTAPDAAFDSFFIGYLEPQPPGEAIHLFVPGSERSYDLTGLKPGTEYNVTIQGVKGGFPSNPLSAQFTT
[B] CD71-binding FN3 domain SEQ ID NO 375 (designed binder) MLPAPKNLVVSRVTEDSARLSWTAPDAAFDSFFIGYLEPQPPGEAIDLTVPGSERSYDLTGLKPGTEYNVTIQGVKGGFPSMPLSAIFTT
Request: Hey, which is lower on measured RLU, A or B ? Reply with the label of the item you choose.
Response: B
(B: 2.82e+06 RLU, A: 4.91e+06 RLU)
